These data points were gathered from patent US20240150330A1.

# EXPERIMENTAL_SYSTEM: TAAR1 receptor (UniProt Q96RJ0)
# RUN_DESCRIPTION: TAAR1 Agonist cAMP Assay
# CONDITION_DESCRIPTION: CHO-K1 cells expressing TAAR1; cAMP HTRF; 30 minutes at room temperature
MEASUREMENT_KIND: EC50

Previously resolved entries follow.
compound="NC[C@@H]1CCOc2c(-c3cncs3)cccc21 [Compound 38]" experimental_system="TAAR1 receptor (UniProt Q96RJ0)" value="0.1 to 1 nM"
compound="CNC[C@@H]1CCOc2c(-c3cnn(C)c3C)cccc21 [Compound 48]" experimental_system="TAAR1 receptor (UniProt Q96RJ0)" value="1 to 10 nM"
compound="CNC[C@@H]1CCOc2c(-c3nccs3)cccc21 [Compound 56]" experimental_system="TAAR1 receptor (UniProt Q96RJ0)" value="10 to 100 nM"
compound="CNC[C@@H]1CCOc2c(-c3ccnc(C)c3C)cccc21 [Compound 42]" experimental_system="TAAR1 receptor (UniProt Q96RJ0)" value="10 to 100 nM"
compound="CNC[C@@H]1CCOc2c(-c3ccnc(C(F)(F)F)c3)cccc21 [Compound 10]" experimental_system="TAAR1 receptor (UniProt Q96RJ0)" value="1 to 10 nM"
compound="CNC[C@@H]1CCOc2c(-c3cnc(C)nc3)cccc21 [Compound 43]" experimental_system="TAAR1 receptor (UniProt Q96RJ0)" value="100 to 1000 nM"
compound="CNC[C@@H]1CCOc2c(-c3ccc(C)nc3)cccc21 [Compound 14]" experimental_system="TAAR1 receptor (UniProt Q96RJ0)" value="1 to 10 nM"

# input Let me know recorded EC50 for CNC[C@@H]1CCOc2c(-c3cc(C)ncc3C)cccc21 [Compound 33] , thanks.
# output 1 to 10 nM

====

Entries annotated with measured pEC50
# EXPERIMENTAL_SYSTEM: TAAR1 receptor (UniProt Q96RJ0)
# RUN_DESCRIPTION: TAAR1 Agonist cAMP Assay
# CONDITION_DESCRIPTION: CHO-K1 cells expressing TAAR1; cAMP HTRF; 30 minutes at room temperature
pEC50: −log10 of the molar value.

compound="COc1cnccc1-c1cccc2c1OCC[C@H]2CN [Compound 11]" experimental_system="TAAR1 receptor (UniProt Q96RJ0)" measurement_kind=pEC50 value="8.00 to 9.00"

# input Under TAAR1 receptor (UniProt Q96RJ0), report pEC50 for Cc1nccc(-c2cccc3c2OCC[C@H]3CN)c1C [Compound 30]
# output 7.00 to 8.00

# input Please indicate recorded pEC50 of Cc1cnccc1-c1cccc2c1OCC[C@H]2CN [Compound 20] measured with TAAR1 receptor (UniProt Q96RJ0).
# output 8.00 to 9.00

# input State pEC50 (TAAR1 receptor (UniProt Q96RJ0)) of NC[C@@H]1CCOc2c(-c3ccc(C(F)(F)F)nc3)cccc21 [Compound 7] .
# output 7.00 to 8.00

# input Give measured pEC50 for NC[C@H]1CCOc2c(-c3cccnc3)cccc21 [Compound 24] (TAAR1 receptor (UniProt Q96RJ0)).
# output 7.00 to 8.00

# input Report the value of pEC50 obtained on TAAR1 receptor (UniProt Q96RJ0) for CNC[C@@H]1CCOc2c(-c3cnsc3)cccc21 [Compound 57] .
# output 8.00 to 9.00

# input Identify measured pEC50 obtained with TAAR1 receptor (UniProt Q96RJ0) for Cn1cncc1-c1cccc2c1OCC[C@H]2CN [Compound 36] .
# output 8.00 to 9.00

# input GET pEC50 | system: TAAR1 receptor (UniProt Q96RJ0) | item: CNC[C@@H]1CCOc2c(-c3ccn(C)n3)cccc21 [Compound 55]
# output 7.00 to 8.00

# input State recorded pEC50 with TAAR1 receptor (UniProt Q96RJ0), entry CNC[C@@H]1CCOc2c(-c3cn(C)nc3C)cccc21 [Compound 49] , no comment.
# output 7.00 to 8.00

# input GET pEC50 | system: TAAR1 receptor (UniProt Q96RJ0) | item: CNCC1CCOc2c(-c3cnccc3C)cccc21 (stereo in doubt) [Compound 6]
# output 8.00 to 9.00

# input Provide pEC50, recorded with TAAR1 receptor (UniProt Q96RJ0), of CNC[C@@H]1CCOc2c(-c3ccncc3C)cccc21 [Compound 21]
# output 7.00 to 8.00

# input Jot down pEC50 (TAAR1 receptor (UniProt Q96RJ0)) of CNC[C@@H]1CCOc2c(-c3ccc(F)cc3)cccc21 [Compound 53] .
# output 8.00 to 9.00

# input Return reported pEC50 for target or system TAAR1 receptor (UniProt Q96RJ0), item Cc1ncc(-c2cccc3c2OCC[C@H]3CN)cn1 [Compound 26] .
# output 7.00 to 8.00

# input Determine reported pEC50 for NC[C@@H]1CCOc2c(-c3cccnc3)cccc21 [Compound 22] ; test system: TAAR1 receptor (UniProt Q96RJ0).
# output 9.00 to 10.00

# input State the measured pEC50 (TAAR1 receptor (UniProt Q96RJ0)) of NC[C@@H]1CCOc2c(-c3cnccn3)cccc21 [Compound 34]
# output 7.00 to 8.00

# input Lab note: record pEC50 of CNC[C@H]1CCOc2c(-c3ccnc(C)c3)cccc21 [Compound 16] tested on TAAR1 receptor (UniProt Q96RJ0).
# output 7.00 to 8.00

# input Provide pEC50, system TAAR1 receptor (UniProt Q96RJ0), entry CNC[C@@H]1CCOc2c(-c3ccnc(C)c3)cccc21 [Compound 18]
# output 8.00 to 9.00

# input Report its pEC50 with TAAR1 receptor (UniProt Q96RJ0) as the test system: Cc1ccncc1-c1cccc2c1OCC[C@H]2CN [Compound 5]
# output 8.00 to 9.00
